test_protocol: qHTS profiling of the MIPE4 collection as inhibitors of Plasmodium falciparum (DD2) proliferation (Rep 2) (AID 743346)
settings: P. falciparum Dd2 in erythrocytes, SYBR Green DNA, 72 h; at 28.5 µM unless noted
Label True when parasite growth, % of control (lower = inhibition) < 40%; otherwise False.

Incoming: Does the reported parasite growth, % of control (lower = inhibition) of the following compound sit strictly below 40%? CC=CCC(C)C(O)C1C(=O)NC(CC)C(=O)N(C)CC(=O)N(C)C(CC(C)C)C(=O)NC(C(C)C)C(=O)N(C)C(CC(C)C)C(=O)NC(C)C(=O)NC(C)C(=O)N(C)C(CC(C)C)C(=O)N(C)C(CC(C)C)C(=O)N(C)C(C(C)C)C(=O)N1C (stereo unspecified)
Outgoing: True

Incoming: Does the reported parasite growth, % of control (lower = inhibition) of the following compound sit strictly below 40%? O=C(O)C=Cc1ccc(O)c(O)c1
Outgoing: True

Incoming: Does the reported parasite growth, % of control (lower = inhibition) of the following compound sit strictly below 40%? COC[C@@H](c1ccc(C(F)(F)F)cc1)N1CCN(C2(C)CCN(C(=O)c3c(C)ncnc3C)CC2)C[C@H]1C
Outgoing: True

Incoming: Does the reported parasite growth, % of control (lower = inhibition) of the following compound sit strictly below 40%? OC[C@H]1O[C@@H](Oc2cc(O)cc(C=Cc3ccc(O)cc3)c2)[C@H](O)[C@@H](O)[C@H]1O
Outgoing: False

Incoming: Does the reported parasite growth, % of control (lower = inhibition) of the following compound sit strictly below 40%? N#CC1(c2ccc(NC(=O)c3cccnc3NCc3ccncc3)cc2)CCCC1
Outgoing: False

Incoming: Does the reported parasite growth, % of control (lower = inhibition) of the following compound sit strictly below 40%? CC(C)[C@H](CO)Nc1nc(Nc2ccc(C(=O)O)c(Cl)c2)c2ncn(C(C)C)c2n1
Outgoing: True

Incoming: Does the reported parasite growth, % of control (lower = inhibition) of the following compound sit strictly below 40%? CC[C@@H]1C=C(C)C[C@H](C)C[C@H](OC)[C@H]2O[C@@](O)(C(=O)C(=O)N3CCCC[C@@H]3C(=O)O[C@H](C(C)=C[C@@H]3CC[C@H](Cl)[C@H](OC)C3)[C@H](C)[C@@H](O)CC1=O)[C@H](C)C[C@H]2OC
Outgoing: True

Incoming: Does the reported parasite growth, % of control (lower = inhibition) of the following compound sit strictly below 40%? COc1ncc(-c2ccc3nccc(-c4ccnnc4)c3c2)cc1NS(=O)(=O)c1ccc(F)cc1F
Outgoing: True

Incoming: Does the reported parasite growth, % of control (lower = inhibition) of the following compound sit strictly below 40%? CC(=O)O[C@]1(C(C)=O)CC[C@@H]2[C@@H]3C[C@H](C)C4=CC(=O)CC[C@]4(C)[C@H]3CC[C@@]21C
Outgoing: True

Incoming: Does the reported parasite growth, % of control (lower = inhibition) of the following compound sit strictly below 40%? Clc1ccc(C(c2ccc(Cl)cc2)n2cc[n+](CC(OCc3ccc(Cl)cc3Cl)c3ccc(Cl)cc3Cl)c2)cc1 (stereo unspecified)
Outgoing: True

Incoming: Does the reported parasite growth, % of control (lower = inhibition) of the following compound sit strictly below 40%? CO[C@H]1C=CC=C(C)C(=O)NC2=CC(=O)C(NCCN(C)C)=C(C[C@@H](C)C[C@H](OC)[C@@H](O)[C@@H](C)C=C(C)[C@@H]1OC(N)=O)C2=O
Outgoing: True

Incoming: Does the reported parasite growth, % of control (lower = inhibition) of the following compound sit strictly below 40%? O=C(O)C(O)Cc1ccc(O)c(O)c1 (stereo unspecified)
Outgoing: False

Incoming: Does the reported parasite growth, % of control (lower = inhibition) of the following compound sit strictly below 40%? CC(C)(C)c1cc(C(=O)O)c(NC(=O)Nc2ccc3[nH]ncc3c2)s1
Outgoing: False

Incoming: Does the reported parasite growth, % of control (lower = inhibition) of the following compound sit strictly below 40%? O=C1NC(=O)C(=Cc2cccc(C(F)(F)F)c2)S1
Outgoing: False

Incoming: Does the reported parasite growth, % of control (lower = inhibition) of the following compound sit strictly below 40%? O=c1cc(CN2CCOCC2)occ1OCCCCCSc1ccnc2cc(C(F)(F)F)ccc12
Outgoing: True

Incoming: Does the reported parasite growth, % of control (lower = inhibition) of the following compound sit strictly below 40%? CC(=O)Nc1ccc([C@H](C)C(=O)Nc2ncc(C(C)C)s2)cc1
Outgoing: True

Incoming: Does the reported parasite growth, % of control (lower = inhibition) of the following compound sit strictly below 40%? Cc1[nH]c(C=C2C(=O)Nc3ccc(S(=O)(=O)Cc4c(Cl)cccc4Cl)cc32)c(C)c1C(=O)N1CCC[C@H]1CN1CCCC1
Outgoing: True

Incoming: Does the reported parasite growth, % of control (lower = inhibition) of the following compound sit strictly below 40%? O=c1c(O)c(-c2ccc(O)cc2)oc2cc(O)cc(O)c12
Outgoing: True

Incoming: Does the reported parasite growth, % of control (lower = inhibition) of the following compound sit strictly below 40%? O=C(O)CCC1CCC(c2cc(F)ccc2F)(S(=O)(=O)c2ccc(Cl)cc2)CC1 (stereo unspecified)
Outgoing: False

Incoming: Does the reported parasite growth, % of control (lower = inhibition) of the following compound sit strictly below 40%? O=C1c2ccccc2-[n+]2ccc3c([nH]c4ccccc43)c21
Outgoing: True

Incoming: Does the reported parasite growth, % of control (lower = inhibition) of the following compound sit strictly below 40%? CC1(C)Cc2c(sc(NC(=S)NC(=O)c3ccccc3)c2C(=O)O)CO1
Outgoing: False

Incoming: Does the reported parasite growth, % of control (lower = inhibition) of the following compound sit strictly below 40%? NS(=O)(=O)c1cccc2c1C(=O)c1cccc(O)c1C2=O
Outgoing: True

Incoming: Does the reported parasite growth, % of control (lower = inhibition) of the following compound sit strictly below 40%? COCCCCC(=NOCCN)c1ccc(C(F)(F)F)cc1
Outgoing: False

Incoming: Does the reported parasite growth, % of control (lower = inhibition) of the following compound sit strictly below 40%? CCOC(=O)O[C@]1(C(=O)OCCl)CC[C@@H]2[C@H]3CCC4=CC(=O)C=C[C@]4(C)[C@@H]3[C@@H](O)C[C@@]21C
Outgoing: False

Incoming: Does the reported parasite growth, % of control (lower = inhibition) of the following compound sit strictly below 40%? O=c1c(-c2ccc(O)cc2)coc2cc(O[C@@H]3O[C@H](CO)[C@H](O)[C@H](O)[C@H]3O)ccc12
Outgoing: False

Incoming: Does the reported parasite growth, % of control (lower = inhibition) of the following compound sit strictly below 40%? O=C(N[C@@H](c1ccccc1)[C@@H]1CCCCN1)c1cccc(C(F)(F)F)c1Cl
Outgoing: True

Incoming: Does the reported parasite growth, % of control (lower = inhibition) of the following compound sit strictly below 40%? Cc1cnc(C(=O)O)c[n+]1[O-]
Outgoing: False

Incoming: Does the reported parasite growth, % of control (lower = inhibition) of the following compound sit strictly below 40%? O=c1c(-c2ccc(O)cc2)coc2cc(O)ccc12
Outgoing: False

Incoming: Does the reported parasite growth, % of control (lower = inhibition) of the following compound sit strictly below 40%? NC(=O)[C@@H](CCC(F)(F)F)N(Cc1ccc(-c2ncon2)cc1F)S(=O)(=O)c1ccc(Cl)cc1
Outgoing: False

Incoming: Does the reported parasite growth, % of control (lower = inhibition) of the following compound sit strictly below 40%? CC(C)(C)C(=O)Oc1ccc2c(c1)nc(NC(=O)c1cccc([N+](=O)[O-])c1)n2CCCO
Outgoing: True

Incoming: Does the reported parasite growth, % of control (lower = inhibition) of the following compound sit strictly below 40%? COc1ccc(-c2coc3cc(O)cc(O)c3c2=O)cc1
Outgoing: False
